Substrate: CCCC(=O)Oc1ccc([N+](=O)[O-])cc1
Test: purified protein
Format: biochemical, Falsihalocynthiibacter arcticus
Settings: free enzyme, 20 mM Tris-HCl pH 8.0, 25 °C (standard assay)
quantity-measured: kcat (s⁻¹)

• HaSGNH1 (Falsihalocynthiibacter arcticus; M86R) (protein, ORF cloned from genomic DNA (primer starts ATG AGT GCT CGC GTT: MSARV), pET-21a, N-terminal His6 tag, E. coli BL21(DE3)) MSARVQAETVVIAALGDSLTQGYGLPQEDGLVAQLQGWLDENNHDIRLINAGVSGDTTAGGRSRIEWTLTPDVDAVIVELGGNDMRRGIAPSDSRKNLTEILEILQSRDLPVLLVGLPSANNFGPEFKAEFDDMFPALSTDFETLLYPDFFTSFRTKLNDTSALTTYMQDDAIHPNAKGVAAIVEDFGPLVVELAQQTQE = 5.1
• HaSGNH1 (Falsihalocynthiibacter arcticus; R87L) (protein, ORF cloned from genomic DNA (primer starts ATG AGT GCT CGC GTT: MSARV), pET-21a, N-terminal His6 tag, E. coli BL21(DE3)) MSARVQAETVVIAALGDSLTQGYGLPQEDGLVAQLQGWLDENNHDIRLINAGVSGDTTAGGRSRIEWTLTPDVDAVIVELGGNDMMLGIAPSDSRKNLTEILEILQSRDLPVLLVGLPSANNFGPEFKAEFDDMFPALSTDFETLLYPDFFTSFRTKLNDTSALTTYMQDDAIHPNAKGVAAIVEDFGPLVVELAQQTQE = 15
• HaSGNH1 (Falsihalocynthiibacter arcticus) (protein, ORF cloned from genomic DNA (primer starts ATG AGT GCT CGC GTT: MSARV), pET-21a, N-terminal His6 tag, E. coli BL21(DE3)) MSARVQAETVVIAALGDSLTQGYGLPQEDGLVAQLQGWLDENNHDIRLINAGVSGDTTAGGRSRIEWTLTPDVDAVIVELGGNDMMRGIAPSDSRKNLTEILEILQSRDLPVLLVGLPSANNFGPEFKAEFDDMFPALSTDFETLLYPDFFTSFRTKLNDTSALTTYMQDDAIHPNAKGVAAIVEDFGPLVVELAQQTQE = 17.1
• HaSGNH1 (Falsihalocynthiibacter arcticus; M86E) (protein, ORF cloned from genomic DNA (primer starts ATG AGT GCT CGC GTT: MSARV), pET-21a, N-terminal His6 tag, E. coli BL21(DE3)) MSARVQAETVVIAALGDSLTQGYGLPQEDGLVAQLQGWLDENNHDIRLINAGVSGDTTAGGRSRIEWTLTPDVDAVIVELGGNDMERGIAPSDSRKNLTEILEILQSRDLPVLLVGLPSANNFGPEFKAEFDDMFPALSTDFETLLYPDFFTSFRTKLNDTSALTTYMQDDAIHPNAKGVAAIVEDFGPLVVELAQQTQE = 4
